- Assay Overview: recombinant UMI read abundance after kanamycin selection (control-corrected) (log10(CPM+1)); higher = more efficient recombination; extreme values may be limits of the assay; sequences stand for … in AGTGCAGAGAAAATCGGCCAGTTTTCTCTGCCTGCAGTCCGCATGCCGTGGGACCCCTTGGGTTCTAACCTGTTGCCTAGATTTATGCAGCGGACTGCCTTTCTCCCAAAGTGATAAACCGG…AGGTTGGTTTCACT; site = the 11-nt donor;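 note: IS621 bridge recombinase in Escherichia coli cells against a fixed T5 target plasmid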
Recorded Endpoint: recombinant UMI read abundance (log10)

{"columns": ["Seq String", "recombinant UMI read abundance (log10)"],
 "data": [
  ["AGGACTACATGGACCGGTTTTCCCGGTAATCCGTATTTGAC (site AGGACTACTGA)", 0],
  ["ATCTACACATGGACCGGTTTTCCCGGTAATCCGTATTTGAC (site ATCTAGACTGT)", 0],
  ["TCCTAGGCATGGACCGGTTTTCCCGGTAATCCGTATTTGGT (site TCCTAGGCTAC)", 0.0125]
]}

Ask: Assign recombinant UMI read abundance (log10) to the following record: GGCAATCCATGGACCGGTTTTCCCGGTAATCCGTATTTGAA (site GGCAATCCTCT)
Result: 0.0139

Ask: Assign recombinant UMI read abundance (log10) to the following record: TACTAGACATGGACCGGTTTTCCCGGTAATCCGTATTTGCT (site TACTTGACTAG)
Result: 0

Ask: Assign recombinant UMI read abundance (log10) to the following record: AACCGTCCATGGACCGGTTTTCCCGGTAATCCGTATTTGTT (site AACCGTCCTAA)
Result: 0.00892

Ask: Assign recombinant UMI read abundance (log10) to the following record: CGATAATCATGGACCGGTTTTCCCGGTAATCCGTATTTGCT (site CGATGATCTAG)
Result: 0

Ask: Assign recombinant UMI read abundance (log10) to the following record: CGGCAACCATGGACCGGTTTTCCCGGTAATCCGTATTTGAT (site CGGCAACCTAT)
Result: 0

Ask: Assign recombinant UMI read abundance (log10) to the following record: ACAGTCTCATGGACCGGTTTTCCCGGTAATCCGTATTTGCA (site ACAGTTTCTTG)
Result: 0.155
